Molecular target: Neurogenic locus notch homolog protein 2 (Homo sapiens) (UniProt Q04721)
Sequence (Q04721 whole entry, looked up): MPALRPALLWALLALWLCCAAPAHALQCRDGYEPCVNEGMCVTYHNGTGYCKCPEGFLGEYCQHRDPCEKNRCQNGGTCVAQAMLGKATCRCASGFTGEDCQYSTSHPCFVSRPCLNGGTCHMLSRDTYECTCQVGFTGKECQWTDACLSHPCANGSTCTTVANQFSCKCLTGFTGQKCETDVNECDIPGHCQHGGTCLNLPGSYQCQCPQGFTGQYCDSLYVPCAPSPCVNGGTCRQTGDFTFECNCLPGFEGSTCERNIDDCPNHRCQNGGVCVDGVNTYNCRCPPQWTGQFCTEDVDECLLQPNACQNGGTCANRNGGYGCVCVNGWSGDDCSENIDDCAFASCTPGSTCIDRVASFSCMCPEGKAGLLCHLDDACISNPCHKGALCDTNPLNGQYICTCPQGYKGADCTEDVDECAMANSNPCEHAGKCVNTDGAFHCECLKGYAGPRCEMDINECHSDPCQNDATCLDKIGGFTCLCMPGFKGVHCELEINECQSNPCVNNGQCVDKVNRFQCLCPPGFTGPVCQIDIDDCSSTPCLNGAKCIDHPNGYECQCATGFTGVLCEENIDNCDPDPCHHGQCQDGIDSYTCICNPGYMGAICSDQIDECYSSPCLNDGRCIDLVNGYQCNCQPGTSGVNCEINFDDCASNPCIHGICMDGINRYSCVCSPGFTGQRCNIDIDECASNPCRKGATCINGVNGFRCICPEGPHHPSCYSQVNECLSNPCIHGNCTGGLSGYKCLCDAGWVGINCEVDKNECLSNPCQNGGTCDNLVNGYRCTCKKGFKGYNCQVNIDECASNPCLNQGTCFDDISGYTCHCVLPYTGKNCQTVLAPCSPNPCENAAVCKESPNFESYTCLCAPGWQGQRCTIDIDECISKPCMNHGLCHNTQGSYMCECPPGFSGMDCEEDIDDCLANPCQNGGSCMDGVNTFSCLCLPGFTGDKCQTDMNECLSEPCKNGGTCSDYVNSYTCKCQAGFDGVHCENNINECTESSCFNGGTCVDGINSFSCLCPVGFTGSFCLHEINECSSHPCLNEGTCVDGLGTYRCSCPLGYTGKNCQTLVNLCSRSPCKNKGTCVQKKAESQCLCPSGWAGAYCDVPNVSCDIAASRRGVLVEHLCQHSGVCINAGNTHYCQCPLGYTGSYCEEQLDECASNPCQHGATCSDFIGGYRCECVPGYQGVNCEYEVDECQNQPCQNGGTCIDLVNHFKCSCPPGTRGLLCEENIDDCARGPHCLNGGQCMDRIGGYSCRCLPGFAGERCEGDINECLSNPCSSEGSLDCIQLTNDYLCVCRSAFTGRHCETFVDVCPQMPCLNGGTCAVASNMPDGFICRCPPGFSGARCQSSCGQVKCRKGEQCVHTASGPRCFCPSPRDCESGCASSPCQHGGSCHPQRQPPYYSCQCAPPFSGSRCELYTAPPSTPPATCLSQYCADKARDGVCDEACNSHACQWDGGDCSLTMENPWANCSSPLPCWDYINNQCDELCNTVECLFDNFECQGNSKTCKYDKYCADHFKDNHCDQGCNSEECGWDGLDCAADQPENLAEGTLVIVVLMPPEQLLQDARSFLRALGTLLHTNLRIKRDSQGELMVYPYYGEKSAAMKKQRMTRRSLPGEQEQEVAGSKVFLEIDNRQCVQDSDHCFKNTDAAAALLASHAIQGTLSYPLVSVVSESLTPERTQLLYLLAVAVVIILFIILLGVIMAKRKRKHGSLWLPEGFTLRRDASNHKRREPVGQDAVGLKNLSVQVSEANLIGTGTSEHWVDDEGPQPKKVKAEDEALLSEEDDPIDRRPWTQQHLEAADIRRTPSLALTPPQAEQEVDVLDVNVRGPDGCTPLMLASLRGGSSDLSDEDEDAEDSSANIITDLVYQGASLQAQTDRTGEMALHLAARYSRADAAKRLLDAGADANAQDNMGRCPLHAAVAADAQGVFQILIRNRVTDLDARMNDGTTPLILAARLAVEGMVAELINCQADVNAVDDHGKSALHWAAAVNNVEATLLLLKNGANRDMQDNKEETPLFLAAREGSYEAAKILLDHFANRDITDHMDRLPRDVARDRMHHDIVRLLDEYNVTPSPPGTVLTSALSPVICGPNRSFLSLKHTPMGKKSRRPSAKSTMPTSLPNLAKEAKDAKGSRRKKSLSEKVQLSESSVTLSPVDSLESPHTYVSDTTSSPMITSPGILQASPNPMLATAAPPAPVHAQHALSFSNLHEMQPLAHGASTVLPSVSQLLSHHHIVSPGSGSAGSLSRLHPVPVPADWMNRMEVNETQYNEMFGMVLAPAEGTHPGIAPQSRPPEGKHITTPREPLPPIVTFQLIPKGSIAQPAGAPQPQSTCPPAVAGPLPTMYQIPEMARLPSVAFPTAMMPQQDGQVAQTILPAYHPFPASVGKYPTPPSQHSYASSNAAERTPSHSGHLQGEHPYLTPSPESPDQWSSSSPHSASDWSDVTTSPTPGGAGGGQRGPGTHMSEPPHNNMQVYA
Assay: Notch2 binders on small-molecule microarrays, primary screen, biochemical, small-molecule microarray, 635 nm fluorescence, stem cell growth factors (AID 1073)
Conditions: Notch2 binding, higher = more signal
experimental endpoint: composite z-score
Please respond with just the number, no unit label.

For orientation, consider the following solved cases.
molecule	composite z-score
Cc1ccc(S[C@]2(C(=O)NCC(C)C)CC(=O)N(C(C)C)[C@@H]2c2ccc(CO)cc2)cc1	-0.625
CC(C)(C)OC(=O)CC[C@]1(C(=O)NCc2ccccc2)COC(c2ccc(OCCCO)cc2)=N1	0.431
COCCCNC(=O)[C@@]1(Cc2ccccc2CN=[N+]=[N-])COC(c2ccc(OCCCO)cc2)=N1	1.28
O=C(N1CCCCC1)[C@@]1(Cc2ccccc2)N=C(c2ccc(OCCCO)cc2)O[C@H]1c1ccccc1	1.58
COCCOC(=O)N1C(=O)[C@@]2(c3cc(C#CC4(O)CCCCCC4)ccc31)[C@H](c1ccc(O)cc1)N1[C@H](c3ccccc3)[C@H](c3ccccc3)OC(=O)[C@H]1[C@@H]2C(N)=O	0.397
CCCCC(=C=CC[C@H](O)c1cccc(OCCO)c1)CCO	-0.854
C=C(/C(=C/C[C@H](OC(C)=O)c1cccc(OCCO)c1)c1cc(C(=O)OC)ccc1OC)C(C)C	-1.02
CCOC(=O)C[C@H]1[C@H](OC(=O)c2cc3ccccc3oc2=O)[C@@H](NC(=O)c2ccccc2)c2cc(OCCCO)ccc2N1C(=O)Cc1ccc(OC)cc1	0.81
[N-]=[N+]=NCc1ccccc1C[C@@]1(C(=O)NCc2ccccc2)N=C(c2ccc(OCCCO)cc2)O[C@@H]1c1ccccc1	0.853
C=C(CCCC)/C(=C/C[C@H](OC(=O)c1ccncc1)c1ccc(CO)o1)c1cnc2ccccc2c1	1.41

Request: Request the reported composite z-score associated with C=CCN1C(=O)[C@@]2(O[C@@H](CCO)[C@H]([Si](C)(C)c3ccc(OC)cc3)[C@H]2C)c2cc(N(C=O)c3ccccc3)ccc21
Result: 0.555

Request: Again, but for O=C(NCC(F)(F)F)[C@@H]1c2ccccc2C(=O)N(C2Cc3ccccc3C2)[C@H]1c1ccc(CO)cc1
Result: -0.98

Request: Another molecule: C=CCN1C(=O)[C@@]2(O[C@@H](CCn3cc(CCO)nn3)[C@H]([Si](C)(C)c3ccc(OC)cc3)[C@H]2C)c2cc(NC(=O)c3ccc(OC)cc3)ccc21
Result: 0.0039

Request: Record: COCCCNC(=O)[C@@]1(C)c2ccccc2C(=O)N(Cc2cc(F)cc(C(F)(F)F)c2)[C@H]1c1ccc(CO)cc1
Result: -1.19

Request: Would you mind doing CC(C)C(=C=CC[C@H](O)c1ccc(OCCO)cc1)C[C@H](O)COCc1ccccc1 as well?
Result: -0.438

Request: C#CCOc1ccc(C[C@H]2C(=O)O[C@H](Cc3ccccc3)[C@H](/C=C/C3CC3)N2CC#C)cc1
Result: -0.487

Request: Input [N-]=[N+]=NCc1ccccc1C[C@@]1(C(=O)O)N=C(c2ccc(OCCCO)cc2)O[C@@H]1c1ccccc1
Result: -0.0526

Request: Same lookup for C=CCNC(=O)[C@@H]1[C@H]2C(=O)O[C@H](c3ccccc3)[C@H](c3ccccc3)N2[C@H](c2ccc(O)cc2)[C@@]12C(=O)N(C(=O)OCCOC)c1ccc(C#Cc3ccc(OC)cc3)cc12 , please.
Result: 1.34

Request: Same lookup for CC(C)(C)OC(=O)CC[C@]1(C(=O)NCc2ccccc2)N=C(c2ccc(OCCCO)cc2)O[C@H]1c1ccccc1N=[N+]=[N-] , please.
Result: 1.65

Request: // same read-out, input: CCN(CC)c1ccc(N2CC=CC34O[C@@H]5C=CCOC(=O)[C@@H]5[C@H]3C(=O)N(C(C)CO)[C@@H]4C2=O)cc1 (some centres undefined)
Result: -1.58

Request: Okay, and C=CCN1C(=O)[C@]2(O[C@H](CCn3cc([C@H](O)c4ccccc4)nn3)[C@@H]([Si](C)(C)c3ccc(OC)cc3)[C@@H]2C)c2cc(N3CCOC3=O)ccc21 ?
Result: -0.74

Request: And COC(=O)C1=CC(c2ccc(CO)cc2)=CC(c2cccs2)N(C)C=C1C(=O)OC (centres undefined) ?
Result: -0.109

Request: Next up: COC(=O)c1c(CC[C@@H](CO)NC(=O)Nc2ccc(OC)cc2)oc(C(=O)Cc2ccccc2)c1C(=O)OC
Result: 0.704

Request: Do the same for Cc1ccc(S[C@]2(C(=O)NCCN3CCOCC3)CC(=O)N(Cc3cc(C(F)(F)F)cc(C(F)(F)F)c3)[C@@H]2c2ccc(CO)cc2)cc1 please
Result: -1.26

---

Tested on: Chordin-like protein 2 (CHRDL2)
Test: CHRDL2 small-molecule binders, primary screen, biochemical, small-molecule microarray, 635 nm fluorescence (AID 1126);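 note: printed compound slides probed with Chrdl2 protein at 4 µg/mL for 1 h at 4 C; score merges 667 nm emission intensity with signal to noise over three replicate slides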
Conditions: small-molecule microarray binding, fluorescence 635 nm; higher = more signal
Returns rule met if the recorded composite z-score is greater than or equal to -0.4, and rule not met otherwise.

Study these solved cases before continuing.
compound	assigned category
CC(=O)OC(C/C=C\B1OC(C)(C)C(C)(C)O1)c1ccccc1 (centres undefined)	rule met
C=CCC(OC(C)=O)[C@@H]1[C@@H](N(Cc2ccc(-c3cccc(C(F)(F)F)c3)o2)C(=O)c2ccc(-c3ccccc3)cc2)c2cc(OCCCO)ccc2N1C(=O)Cc1ccc(OC)cc1 (some centres undefined)	rule met
CCCCCN1CC=CC23O[C@@H]4/C=C\CCC(C)OC(=O)C4[C@H]2C(=O)N(CCO)[C@@H]3C1=O (some centres undefined)	rule not met
C=CCNC(=O)[C@@H]1[C@H]2C(=O)O[C@H](c3ccccc3)[C@H](c3ccccc3)N2[C@H](c2ccc(O)cc2)[C@@]12C(=O)Nc1ccccc12	rule not met
CCCCCN1CC=CC23O[C@@H]4/C=C\CCC(C)OC(=O)C4[C@H]2C(=O)N(CCCO)[C@@H]3C1=O (some centres undefined)	rule not met

Request: Quick check, composite z-score >= -0.4? C=CC[C@@]1(C(=O)NCc2ccccc2)N=C(c2ccc(OCCCO)cc2)O[C@@H]1c1ccccc1
Result: rule met

Request: Input C=C1C=C(Br)C2(OCCCO2)[C@H]2OC12 (some centres undefined)
Result: rule met

Request: Next compound: COC(=O)C1=CC(c2ccc(CO)cc2)=CC(c2cccs2)N(C)C=C1C(=O)OC (centres undefined)
Result: rule not met

Request: Please give the result for COCCCN1C(=O)[C@@]2(Cc3ccccc31)c1ccccc1C(=O)N(Cc1ccccc1Cl)[C@H]2c1ccc(CO)cc1 too.
Result: rule met

---

Assay: MM1S myeloma cell viability, profiling panel, resazurin fluorescence, basal, 24 h, PK04 Diversity Set (AID 1174);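 note: MM1S multiple myeloma cell line; test concentration not given here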
Details: higher = more signal, called active from +8 up or from −8 down
Think of 0.9 as a floor: if z-score stands on it or above, it is 1.0; beneath it, 0.0.

Request: Hello, I need to know if NC(=O)N1C(=O)C2C(C1=O)C1C=C(c3ccc(CO)cc3)C2C(C2CC2)N1Cc1cc2c(cc1Br)OCO2 (stereo unspecified) has measured z-score not below 0.9. Thanks!
Result: 0.0

Request: And for COCCOC(=O)N1C(=O)[C@@]2(c3ccccc31)[C@H](C(=O)Nc1nc3ccccc3s1)[C@H]1C(=O)O[C@H](c3ccccc3)[C@H](c3ccccc3)N1[C@@H]2c1ccc(O)cc1 ?
Result: 0.0

Request: Same question for COCCOC(=O)N1C(=O)[C@@]2(c3cc(C#CCNC(N)=O)ccc31)[C@H](c1ccccc1OCCO)N1[C@H](c3ccccc3)[C@H](c3ccccc3)OC(=O)[C@H]1[C@@H]2C(=O)Nc1nc2ccccc2s1 please.
Result: 1.0

---

Assay: osmotic lysis modulators in infected erythrocytes, primary screen, PSAC antagonist project, cell-based, P. falciparum Indochina, OD700, 3 h (AID 1156)
Details: higher = more signal, called active from +8 up or from −8 down
experimental endpoint: z-score
Please respond with just the number, no unit label.

compound	recorded number
C=C(COC)/C(=C/C[C@H](OC(C)=O)c1cccc(OCCO)c1)c1cc(C(=O)OC)ccc1OC	-2.63

Request: What measured z-score goes with COc1ccc(C#Cc2ccc3c(c2)[C@]2(C(=O)N3)[C@H](c3ccc(O)cc3)N3[C@H](c4ccccc4)[C@H](c4ccccc4)OC(=O)[C@H]3[C@@H]2C(N)=O)cc1 ?
Result: 0.672

Request: What do you get for COc1ccc(/C=C/C(=O)c2cccc(OCC(=O)OC(C)(C)C)c2)cc1 ?
Result: 0.746

Request: Try the compound C=C(COC)C(=O)CC[C@@H](OC(=O)c1ccccc1-c1ccccc1C(=O)O)c1cccc(OCCO)c1
Result: 1.28

Request: Same lookup for CC(C)C[C@@H]1NC(=O)[C@@H]2C[C@H](C(=O)NCCCCCNC(=O)CS)[C@H](c3cccc(OCCO)c3)N2C1=O , please.
Result: -1.74

Request: Next up: COCCCNC(=O)[C@@]1(C)c2ccccc2C(=O)N(Cc2cc(F)cc(C(F)(F)F)c2)[C@H]1c1ccc(CO)cc1
Result: 0.0539

Request: What about this compound? COc1ccc([Si](C)(C)[C@H]2[C@H](CCO)O[C@@]3(C(=O)N(Cc4ccc(N5C(=O)c6cccc7cccc5c67)cc4)c4ccccc43)[C@@H]2C)cc1
Result: -0.273

Request: Same again, this time with CC(C)C(=C=CC[C@@H](O)c1ccc(CO)o1)CCO
Result: 0.311

Request: Another: CO[C@H]1O[C@H](CO)[C@@H](OC(=O)Nc2ccccc2)[C@H](OC(=O)Nc2ccc3c(c2)OCO3)[C@H]1OC(=O)Nc1ccc2c(c1)OCO2
Result: 0.0835

Request: Queued: C=CCNC(=O)[C@H]1[C@@H]2C(=O)O[C@@H](c3ccccc3)[C@@H](c3ccccc3)N2[C@@H](c2ccccc2OCCO)[C@]12C(=O)N(C(=O)OCCOC)c1ccc(C#CCCO)cc12
Result: -0.383

Request: Entry to check: C=CC[C@@H](OC(=O)Nc1ccc(SC)cc1)c1ccc(OCCO)cc1
Result: 0.616
